# experimentalTarget: human glucagon receptor (human, UniProt P47871 26-477)
# Sequence (P47871 26-477): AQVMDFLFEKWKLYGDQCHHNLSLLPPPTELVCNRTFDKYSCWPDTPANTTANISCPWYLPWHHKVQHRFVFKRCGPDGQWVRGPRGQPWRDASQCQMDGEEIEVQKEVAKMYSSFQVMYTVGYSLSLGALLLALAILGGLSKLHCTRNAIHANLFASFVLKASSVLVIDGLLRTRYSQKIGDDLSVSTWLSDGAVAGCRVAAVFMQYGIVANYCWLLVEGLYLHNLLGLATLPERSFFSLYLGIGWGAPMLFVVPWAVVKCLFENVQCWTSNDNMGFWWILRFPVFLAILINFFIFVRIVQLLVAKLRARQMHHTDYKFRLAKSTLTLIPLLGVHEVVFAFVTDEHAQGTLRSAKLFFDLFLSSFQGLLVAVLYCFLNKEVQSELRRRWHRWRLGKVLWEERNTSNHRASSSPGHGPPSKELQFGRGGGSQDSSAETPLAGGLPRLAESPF
# testMethodNotes: cell-based or functional assay
Where no end group is shown, it is not given here. [ ]: non-standard residue; d: D form. Aib = CC(C)(N)C(=O)O
attributeMeasured: hGcgR CRE Luc EC50 (pM)
# output: bare number, implied unit pM

Item under review: Y[Aib]QGTFTSDYSIYLDKQAA[Aib]EFVNWLLAGGPSSGAPPPS-NH2 (not fully specified (residue 16); printed as Y-Aib-QGTFTSDYSIYLD-K[2-[2-[2-[[2-[2-[2-[[(4S)-4-carboxy-4-(17-carboxyheptadecanoylamino)butanoyl]amino]ethoxy]ethoxy]acetyl]amino]ethoxy]ethoxy]acetyl]-QAA-Aib-EFVNWLLAGGPSSGAPPPS-NH2) [Compound No. 1] . Reported hGcgR CRE Luc EC50 (pM)?
157

Item under review: Y[Aib]HGTFTSDYSIYLEKQAA[Aib]EFVQWLLEGGPSSGAPPPS-NH2 (not fully specified (residue 16); printed as Y-Aib-HGTFTSDYSIYLE-K[(2S)-2-amino-6-[[(2S)-2-amino-6-[[(4S)-4-carboxy-4-(19-carboxynonadecanoylamino)butanoyl]amino]hexanoyl]amino]hexanoyl]-QAA-Aib-EFVQWLLEGGPSSGAPPPS-NH2) [Compound No. 18] . Reported hGcgR CRE Luc EC50 (pM)?
72.1

Item under review: H[Aib]HGTFTSDYSIYLEKKAA[Aib]EFVQWLLEGGPSSGAPPPS-NH2 (not fully specified (residue 16); printed as H-Aib-HGTFTSDYSIYLE-K[(2S)-2-amino-6-[[(2S)-2-amino-6-[[(4S)-4-carboxy-4-(19-carboxynonadecanoylamino)butanoyl]amino]hexanoyl]amino]hexanoyl]-KAA-Aib-EFVQWLLEGGPSSGAPPPS-NH2) [Compound No. 33] . Reported hGcgR CRE Luc EC50 (pM)?
13.7

Item under review: H[Aib]HGTFTSDYSILLEKQAA[Aib]EFVQWLLEGGPSSGAPPPS-NH2 (not fully specified (residue 16); printed as H-Aib-HGTFTSDYSILLE-K[(2S)-2-amino-6-[[(2S)-2-amino-6-[[(4S)-4-carboxy-4-(19-carboxynonadecanoylamino)butanoyl]amino]hexanoyl]amino]hexanoyl]-QAA-Aib-EFVQWLLEGGPSSGAPPPS-NH2) [Compound No. 43] . Reported hGcgR CRE Luc EC50 (pM)?
10.8

Item under review: H[Aib]HGTFTSDYSIYLEKQAA[Aib]EFVQWLLEGGPSSGAPPPS-NH2 (not fully specified (residue 16); printed as H-Aib-HGTFTSDYSIYLE-K[(2S)-2-amino-6-[[(2S)-2-amino-6-[[(4S)-4-carboxy-4-(19-carboxynonadecanoylamino)butanoyl]amino]hexanoyl]amino]hexanoyl]-QAA-Aib-EFVQWLLEGGPSSGAPPPS-NH2) [Compound No. 22] . Reported hGcgR CRE Luc EC50 (pM)?
48.7

Item under review: Y[Aib]QGTFTSDYSIYLDKQAA[Aib]KFVQWLLEGGPSSGAPPPS-NH2 (not fully specified (residue 21); printed as Y-Aib-QGTFTSDYSIYLDKQAA-Aib-K[2-[2-[2-[[2-[2-[2-[[(4S)-4-carboxy-4-(17-carboxyheptadecanoylamino)butanoyl]amino]ethoxy]ethoxy]acetyl]amino]ethoxy]ethoxy]acetyl]-FVQWLLEGGPSSGAPPPS-NH2) [Compound No. 4] . Reported hGcgR CRE Luc EC50 (pM)?
31.4
